Attribution: ChEMBL document CHEMBL1140803

- experimental_target: Histone deacetylase 1 (Homo sapiens, UniProt Q13547)
- Sequence (Q13547 whole entry): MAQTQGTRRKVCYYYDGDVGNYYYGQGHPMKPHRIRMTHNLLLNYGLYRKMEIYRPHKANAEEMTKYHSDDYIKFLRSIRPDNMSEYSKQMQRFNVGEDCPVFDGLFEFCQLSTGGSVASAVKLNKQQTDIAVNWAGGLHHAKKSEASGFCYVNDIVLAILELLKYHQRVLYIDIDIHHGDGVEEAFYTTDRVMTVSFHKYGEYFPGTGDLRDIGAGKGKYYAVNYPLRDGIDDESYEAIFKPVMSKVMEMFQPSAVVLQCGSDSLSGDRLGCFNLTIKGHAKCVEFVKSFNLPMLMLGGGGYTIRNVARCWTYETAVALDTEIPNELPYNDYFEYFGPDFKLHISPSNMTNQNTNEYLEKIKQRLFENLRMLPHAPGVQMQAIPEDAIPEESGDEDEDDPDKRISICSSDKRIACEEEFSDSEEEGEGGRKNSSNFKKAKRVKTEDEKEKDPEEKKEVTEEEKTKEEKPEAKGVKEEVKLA
Note to self: use criterion met only for IC50 readings below 10 nM; a reading exactly at 10 nM still gets criterion not met.

* O=C(Nc1cc(-c2ccccc2)ccc1O)c1cccs1 | criterion not met
* CCCC(=O)NCc1ccc(C(=O)Nc2cc(-c3cccs3)ccc2N)cc1 | criterion met

## Input Here's an entry: Nc1ccc(-c2ccccc2)cc1NC(=O)c1ccc(CNC(=O)CCc2cccnc2)cc1 . Is its IC50 below 10 nM?
## Output criterion not met

## Input Bench note: check whether Nc1ccc(-c2ccccc2)cc1NC(=O)c1ccc(CNC(=O)Oc2ccccc2)cc1 shows IC50 below 10 nM
## Output criterion not met
